- assay procedure: canonical NF-kB pathway blockers in HEK293 – cell-based, flow cytometry, eGFP/dsRED, dry powder, selectivity assay for LMP1 NF-kB inhibitor project, dose response (AID 652043)
- test conditions: HEK293 TNFa-induced NF-kB eGFP reporter, flow cytometry, 16 h; at 19.5 µM (top of the series)
assay endpoint: activity change, negative = inhibition (%)
Numeric answer only, unit % assumed.

Reference set (5 entries):
compound structure string	quantity unit	activity change, negative = inhibition
CN(C)c1ccc2c(c1)[C@@H]1C[C@@H](CC(=O)N3CCc4ccccc4C3)O[C@@H](CO)[C@@H]1O2	%	-1.46
CCCNC(=O)C[C@H]1CC[C@@H]2[C@H](COc3ccc(NC(=O)c4cc(C)on4)cc3C(=O)N2C)O1	%	-2.12
COCCNC(=O)C[C@@H]1C[C@H]2c3cc(N(C)C)ccc3O[C@H]2[C@H](CO)O1	%	-5.65
CN1C(=O)c2cc(NS(C)(=O)=O)ccc2OC[C@@H]2O[C@@H](CC(=O)NCc3ccc(-c4ccccc4)cc3)CC[C@H]21	%	-0.9
CNC(=O)C[C@H]1CC[C@@H]2[C@H](COc3ccc(NC(=O)c4cc(C)on4)cc3C(=O)N2C)O1	%	-1.72

Q: Consider the molecule shown here: `CN(C)c1ccc2c(c1)[C@@H]1C[C@@H](CC(=O)NCc3cccc(F)c3)O[C@@H](CO)[C@@H]1O2` What is its recorded activity change, negative = inhibition?
Result: -9.54

Q: Need activity change, negative = inhibition of `COc1ccccc1CNC(=O)C[C@@H]1C[C@H]2c3cc(N(C)C)ccc3O[C@H]2[C@H](CO)O1` , thanks.
Result: -11.3

Q: Item `O=C(C[C@@H]1C[C@H]2c3cc(NS(=O)(=O)c4ccc(F)cc4)ccc3O[C@H]2[C@H](CO)O1)NCc1ccc(Oc2ccccc2)cc1` has what recorded activity change, negative = inhibition?
Result: -4.18
